Consider the following compounds; for each one, report its TGI.
Tested on: SF-268 CNS
Assay: NCI tumour cell line growth inhibition, 48 h

Here is how some compounds turned out for TGI.
Enquiry: I'm curious: which TGI was measured for `c1ccc([CH2][Sn]([CH2]c2ccccc2)([S]c2cccc3cccnc23)[S]c2cccc3cccnc23)cc1` tested on SF-268 CNS?
Return: 2.3 µM

Enquiry: I'm curious: which TGI was measured for `Cn1cc(-c2ccc3cc(-c4ccc(CC(=O)Nc5cc(C(C)(C)C)nn5C)cc4)cnc3c2)cn1` tested on SF-268 CNS?
Return: > 100 µM

Enquiry: I'm curious: which TGI was measured for `CCc1cc(C(N)=O)ccc1-n1nc(C(C)C)c2c(-n3cnc(-c4cnn(C)c4)c3)ccnc21` tested on SF-268 CNS?
Return: > 100 µM

Enquiry: I'm curious: which TGI was measured for O=[N+]([O-])c1ccc2c(c1)nc(Cc1ccccc1)n2C[C@@H]1CCCN2CCCCC12 (some centres not stated) tested on SF-268 CNS?
Return: > 100 µM

Enquiry: I'm curious: which TGI was measured for `CCNC(=S)N/N=C/c1cc(OC)ccc1O` tested on SF-268 CNS?
Return: > 100 µM

Enquiry: I'm curious: which TGI was measured for `C(=N\Nc1ncc(-c2cc3cc4c(cc3o2)OCO4)s1)/c1c[nH]c2ccccc12` tested on SF-268 CNS?
Return: 2.86 µM

Enquiry: I'm curious: which TGI was measured for `Nn1c(Cc2ccc(Cl)cc2)n[nH]c1=O` tested on SF-268 CNS?
Return: > 100 µM

Enquiry: I'm curious: which TGI was measured for `CCOC(=O)c1c(SC(=O)c2cc(OC)c(OC)c(OC)c2)n(-c2ccccc2)c(=S)n(-c2ccccc2)c1=O` tested on SF-268 CNS?
Return: > 100 µM

Enquiry: I'm curious: which TGI was measured for Cc1cn(C2CC(O)C(CO)C2C)c(=O)[nH]c1=O (configuration not stated) tested on SF-268 CNS?
Return: > 100 µM

Enquiry: I'm curious: which TGI was measured for COc1ccc(/C=N\N2CC(=O)N3C4C=CC(CC4)N3C2=O)cc1 (configuration not stated) tested on SF-268 CNS?
Return: > 100 µM

Required: TGI, one value per compound below.
1. Brc1ccc2c(-c3nc(-c4c[nH]c5ccccc45)cs3)c[nH]c2c1
2. C1=C[C@@H]2c3ccc4cnccc4c3NC[C@@H]2C1
3. COc1cc[c]([Hg][Cl])cc1

Return:
> 100 µM
> 100 µM
13.3 µM
